- System: HIV-1 mutant M4
- protocol-description: Antiviral activity in deCIPhR cellular system (replicative phenotyping, β-galactosidase indicator cell line)
- Format: cell-based
- conditions-used: Human immunodeficiency virus 1
Structures can show the parent of a compound that is named as a salt.
Would you kindly list EC50 for each of these compounds?
Just the number in nM, nothing appended.

Per the records, this compound ( Cc1cn([C@H]2C[C@H](F)[C@@H](COP(=O)(O)O)O2)c(=O)[nH]c1=S [Example 4-SFLTMP, disodium salt] ) has EC50 equal to 31

Per the records, this compound ( Cc1cn([C@H]2C[C@H](F)[C@@H](COP(=O)(O)O)O2)c(=S)[nH]c1=O [Example 2-SFLTMP, disodium salt] ) has EC50 equal to 392

Per the records, this compound ( Cc1cn([C@H]2C[C@H](F)[C@@H](CO)O2)c(=O)[nH]c1=O ) has EC50 equal to 16

====

- Test system: HIV-1 mutant M184V
- protocol-description: Antiviral activity in deCIPhR cellular system (replicative phenotyping, β-galactosidase indicator cell line)
- Format: cell-based
- conditions-used: Human immunodeficiency virus 1
Counter-ions that a name gives are not always drawn.
Would you kindly list pEC50 for each of these compounds?
Quick note: pEC50 values are minus log10 of concentrations in mol/L.

Per the records, this compound ( Cc1cn([C@H]2C[C@H](F)[C@@H](COP(=O)(O)O)O2)c(=S)[nH]c1=O [Example 2-SFLTMP, disodium salt] ) has pEC50 equal to 6.84

Per the records, this compound ( Cc1cn([C@H]2C[C@H](F)[C@@H](CO)O2)c(=O)[nH]c1=O ) has pEC50 equal to 7.57

Per the records, this compound ( Cc1cn([C@H]2C[C@H](F)[C@@H](COP(=O)(O)O)O2)c(=O)[nH]c1=S [Example 4-SFLTMP, disodium salt] ) has pEC50 equal to 7.37
